Target: UniProt:P34913
Assay: in vitro biochemical activity test, sEH enzyme inhibition with EET substrate (LC-MS)
Details: 90 min pre-incubation at room temperature, 60 min reaction
pIC50: −log10 of the molar value.
readout-label: pIC50

Worked cases, pIC50 given:
{"compound": "Cc1nn(S(C)(=O)=O)c(C)c1-c1cc2nc(-c3ccc(C(F)(F)F)cc3)[nH]c2cc1F [Compound 24]", "readout-label": "pIC50", "number": 9.70}
{"compound": "Fc1c(-c2cnc(N3CCOCC3)nc2C(F)F)cc2[nH]c(-c3ccc(C(F)(F)F)cc3)nc2c1F [Compound 74]", "readout-label": "pIC50", "number": 9.77}

[1] Cc1nc(N)ncc1-c1cc2nc(-c3ccc(S(=O)(=O)N(C)C)cc3)[nH]c2c(F)c1F [Compound 27]
[2] Cc1cc(-c2cc3nc(-c4ccc(C(F)(F)F)cc4)[nH]c3cc2F)n(C)n1 [Compound 13]
Problem: Among 1 and 2 , which shows a numerically higher pIC50 result? Kindly state the label of the option you pick.
Solution: 1
(1: 10.25, 2: 9.40)

====

Assay: in vivo pharmacokinetics in male ICR mice, IV and PO
Design: species or system mouse (male ICR mice)
Settings: 2 mg/kg; mouse plasma; PO, 2 mpk; read-out: Oral administration by gavage (PO) T1/2 (converted)
readout-label: half-life (h)

[1] Cc1nc(N)ncc1-c1cc2nc(-c3ccc(C(F)(F)F)cc3)[nH]c2c(F)c1F
[2] Nc1cc(Cl)c(-c2cc3[nH]c(-c4ccc(C(F)(F)F)cc4)nc3cc2F)cn1
Problem: Hey, between 1 and 2 which has a smaller measured half-life? Kindly state the label of the option you pick.
Solution: 1

====

Molecular target: soluble epoxide hydrolase (sEH) (Homo sapiens, UniProt P34913)
Sequence (P34913 whole entry): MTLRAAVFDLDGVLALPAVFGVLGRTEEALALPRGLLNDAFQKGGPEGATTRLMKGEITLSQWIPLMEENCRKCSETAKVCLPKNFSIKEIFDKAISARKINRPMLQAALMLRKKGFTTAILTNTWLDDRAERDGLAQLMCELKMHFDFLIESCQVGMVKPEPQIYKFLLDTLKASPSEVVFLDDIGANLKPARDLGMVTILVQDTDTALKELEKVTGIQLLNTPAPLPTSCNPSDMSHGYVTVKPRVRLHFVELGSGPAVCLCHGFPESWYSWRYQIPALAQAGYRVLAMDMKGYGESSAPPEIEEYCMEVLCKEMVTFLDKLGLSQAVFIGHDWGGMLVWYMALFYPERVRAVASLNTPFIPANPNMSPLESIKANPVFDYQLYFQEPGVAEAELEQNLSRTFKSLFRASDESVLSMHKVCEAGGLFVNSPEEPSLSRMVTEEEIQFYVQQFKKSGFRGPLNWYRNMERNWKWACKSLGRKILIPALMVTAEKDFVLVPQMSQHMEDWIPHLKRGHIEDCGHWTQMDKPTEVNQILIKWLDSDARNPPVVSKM
Experiment: in vitro biochemical activity test, sEH enzyme inhibition with EET substrate (LC-MS)
Conditions: 90 min pre-incubation at room temperature, 60 min reaction
Description: This example relates to the relationship between the structure and activity of (hetero)aryl imidazole compounds containing an aromatic substituent. Specifically, the biochemical activity of the (hetero)aryl imidazole compounds containing an aromatic substituent described in Example 1 as sEH enzyme inhibitors was evaluated by in vitro activity test experiments. The experimental procedures for evaluating in vitro biochemical activity were described below. […]
readout-label: IC50 (nM)

Worked cases, IC50 given:
{"smiles-data": "Cc1cnccc1-c1cc2nc(-c3ccc(C(F)F)cc3)[nH]c2cc1F", "number": 0.14}
{"smiles-data": "Nc1ncc(-c2cc3[nH]c(-c4ccc(F)c(C(F)(F)F)c4)nc3c(F)c2F)c(C(F)F)n1", "number": 0.15}
{"smiles-data": "CN(C)S(=O)(=O)c1ccc(-c2nc3cc(-c4ccncc4Cl)c(F)cc3[nH]2)cc1", "number": 0.11}

[A] CN(C)S(=O)(=O)c1ccc(-c2nc3cc(-c4cncnc4C(F)(F)F)c(F)cc3[nH]2)cc1
[B] Cc1ncc(-c2cc3nc(-c4ccc(S(C)(=O)=O)cc4)[nH]c3cc2Cl)c(Cl)n1
[C] Cc1nn(C(F)F)cc1-c1cc2[nH]c(-c3ccc(C(F)(F)F)cc3)nc2c(F)c1F
[D] CN(C)S(=O)(=O)c1ccc(-c2nc3cc(F)c(-c4cnc(N)nc4C(F)F)cc3[nH]2)cc1
[E] Cc1cc(F)ncc1-c1cc2nc(-c3ccc(S(N)(=O)=O)cc3)[nH]c2cc1F
Problem: Please list these in order of increasing IC50. Thank you! Reply: labels, ordered per the request.
Solution: D, C, A, E, B

Where do the numbers come from? From patent US20260297065A1.
